Listing of entries alongside the reported IC50.
Test system: T1, CD3 expressed on cell-surface of primary human T cells (human, UniProt P07766 23-207; P04234 22-171)
T1 construct: also called cell-surface CD3; human CD3
T1 sequence (P07766 23-207 limits assumed, chain 1 of 2): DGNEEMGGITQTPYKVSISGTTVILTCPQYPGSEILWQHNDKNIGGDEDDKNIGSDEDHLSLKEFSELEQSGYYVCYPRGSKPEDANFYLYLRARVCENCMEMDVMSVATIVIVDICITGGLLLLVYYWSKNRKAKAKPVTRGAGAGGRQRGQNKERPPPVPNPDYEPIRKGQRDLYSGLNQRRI
T1 sequence (P04234 22-171 limits assumed, chain 2 of 2): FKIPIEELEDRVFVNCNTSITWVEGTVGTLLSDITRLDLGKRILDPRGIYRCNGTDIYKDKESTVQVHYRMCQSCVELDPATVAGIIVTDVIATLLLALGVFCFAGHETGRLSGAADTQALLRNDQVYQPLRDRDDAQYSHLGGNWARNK
Method summary: flow cytometry competition vs murine SP34-AF488 on human T cells, n = 2

Binder	Unit abbrev	IC50
huSP34.12.7 Fab-HF (Fab, V domains shown) VH: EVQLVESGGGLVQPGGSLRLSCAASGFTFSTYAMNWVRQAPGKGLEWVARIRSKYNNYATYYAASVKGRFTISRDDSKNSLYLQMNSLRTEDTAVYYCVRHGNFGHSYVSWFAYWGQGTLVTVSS VL: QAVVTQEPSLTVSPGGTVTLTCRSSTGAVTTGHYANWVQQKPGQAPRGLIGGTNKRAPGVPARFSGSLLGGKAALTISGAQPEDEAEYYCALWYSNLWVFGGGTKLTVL	µg/mL	0.39
huSP34.12.8 Fab-HF (Fab, V domains shown) VH: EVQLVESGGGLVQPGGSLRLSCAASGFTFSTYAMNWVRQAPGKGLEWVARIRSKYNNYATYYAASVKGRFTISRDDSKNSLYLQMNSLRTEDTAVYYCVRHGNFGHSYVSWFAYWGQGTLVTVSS VL: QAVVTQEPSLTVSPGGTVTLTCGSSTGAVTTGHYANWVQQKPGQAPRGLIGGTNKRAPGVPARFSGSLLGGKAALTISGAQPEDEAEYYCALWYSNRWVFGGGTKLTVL	µg/mL	0.29
huSP34.3.10 Fab-HF (Fab, V domains shown) VH: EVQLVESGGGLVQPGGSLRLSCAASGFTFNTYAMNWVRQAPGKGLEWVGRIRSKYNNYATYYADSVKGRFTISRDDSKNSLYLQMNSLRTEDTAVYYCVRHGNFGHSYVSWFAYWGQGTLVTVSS VL: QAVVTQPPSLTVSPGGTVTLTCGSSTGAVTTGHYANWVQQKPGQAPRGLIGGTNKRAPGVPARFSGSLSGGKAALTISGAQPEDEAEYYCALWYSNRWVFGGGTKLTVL	µg/mL	0.09

Cited source for all entries: patent US20230056252A1
